Tested on: K-562 leukemia
Test: NCI tumour cell line growth inhibition, 48 h
propertyMeasured: TGI

Some entries whose results are on file:
{"columns": ["compound", "TGI"],
 "data": [
  ["CCC(N)(C(=O)O)C(C)C (centres undefined)", "> 100 µM"],
  ["COc1cc2cnc3c(c2c(OC)c1OC)Cc1cc2c(cc1-3)OCO2", "> 87.9 µM"]
]}

Prompt line: Need TGI, item Cc1ccc(O)c(C2=CC3=NNC(=O)C3C(c3cccc(Br)c3)C2)c1 (centres undefined)
Response line: > 75 µM

Prompt line: Entry to check: CSc1nc(NC2OC(COC(C)=O)C(OC(C)=O)C(OC(C)=O)C2OC(C)=O)c(N=CC=Nc2c(NC3OC(COC(C)=O)C(OC(C)=O)C(OC(C)=O)C3OC(C)=O)nc(SC)[nH]c2=O)c(=O)[nH]1 (centres undefined)
Response line: > 100 µM

* * *

The following molecules are listed with their measured TGI values.
System: EKVX NSCLC
Test: NCI tumour cell line growth inhibition, 48 h

{"columns": ["molecule", "TGI"],
 "data": [
  ["COC1=CC(=O)c2c(cc(COP(N)(=O)N(CCBr)CCBr)n2C)C1=O (stereo unspecified)", "0.207 µM"],
  ["CCc1n[nH]c(=O)n1O", "> 100 µM"],
  ["CCCCCCCCCCCCCCCCCCOP(=O)([O-])OCC[N+](C)(C)C", "8.29 µM"]
]}

Prompt line: Which TGI value belongs to O=C1OCCC1(Cc1ccc(Cl)cc1)Cc1ccc(Cl)cc1 ?
Response line: > 100 µM

Prompt line: How about C[C@]12CCC(N3CCCC3)CC1=CC[C@@H]1[C@@H]2CC[C@]2(C)C(O)[C@H](n3ccnc3)C[C@@H]12 (stereo partly specified) ?
Response line: > 100 µM

Prompt line: Thanks! And C=[CH][Sn]([CH]=C)([S]c1cccc2cccnc12)[S]c1cccc2cccnc12 ?
Response line: 1.97 µM

* * *

Catalogue of TGI values
System: NCI/ADR-RES ovarian
Test: NCI tumour cell line growth inhibition, 48 h

{"columns": ["compound", "TGI"],
 "data": [
  ["COc1cc(/C=C/C(=O)c2ccccc2)cc(OC)c1OC", "15 µM"],
  ["Nc1c(C(=O)c2cccc(OC[C@@H](O)CO)c2)cnn1-c1ccc(F)cc1", "> 25 µM"]
]}

Prompt line: Enter reported TGI observed with NCI/ADR-RES ovarian for O=c1ccccc(-c2ccc(Br)cc2)c1O
Response line: 2.37 µM

Prompt line: // next record COC(=O)[C@@]12CN(C)[C@@H](C(C)(C)C)N1C(=O)OC2c1ccccc1 (some centres not stated)
Response line: > 100 µM

Prompt line: Here is the next compound: C/C(=C\COP(=O)(O)OP(=O)(O)O)CCCOCc1ccccc1
Response line: > 100 µM

Prompt line: // next record NNC(=O)c1ccccc1Nc1nc(-c2cccs2)nc2ccc(Br)cc12
Response line: > 100 µM

Prompt line: Similarly, CCc1n[nH]c(=O)n1O ?
Response line: > 100 µM

Prompt line: Then this compound: CC/C=C/C(CC)C/C(C)=C\[C@]1(CC)C[C@H](CC)[C@H](CC(=O)O)OO1 (some centres not stated)
Response line: 1.84 µM

* * *

System: U251 CNS
Choose the fitting class; nothing outside active, inactive is accepted.

Check out these entries, answers already filled in.
{"columns": ["compound", "discreteLabel"],
 "data": [
  ["O=C1/C=C/[C@@H](O)[C@@H]2C[C@@H](O)C[C@H]2/C=C/CCC[C@H](CCc2ccccc2)O1", "active"],
  ["c1ccc(CC(Cc2ccccc2)C2=NCCCN2)cc1", "inactive"],
  ["Clc1ccc(Cn2c(CN3CCCC3)nc3ccccc32)cc1", "inactive"],
  ["Cn1c(-c2ccncc2)c(-c2ccc(F)cc2)c2ncccc21", "inactive"],
  ["Cn1cc(-c2csc(-c3c[nH]c4ccccc34)n2)c2cnccc21", "inactive"],
  ["C[CH2][Pb]([CH2]C)([CH2]C)[O]C(=O)COC", "inactive"],
  ["Cc1oc2c(C(=O)N/N=C\\c3ccc(O)cc3O)c[nH]c2c1C", "inactive"],
  ["CCCN1C/C(=C\\c2ccc(O)c(OC)c2)C(=O)/C(=C/c2ccc(O)c(OC)c2)C1", "inactive"],
  ["COc1cc2cnc3c(c2c(OC)c1OC)Cc1cc2c(cc1-3)OCO2", "active"],
  ["COc1ccc(C(=O)c2sc3nc4c(cc3c2N)CCCC4)cc1OC", "inactive"]
]}

Prompt line: State the result this test recorded for O=c1ccccc(-c2ccc(Br)cc2)c1O .
Response line: active

Prompt line: Thanks! And Cc1cc(Cl)ccc1OCc1nn2c(CCCCc3nnc4sc(COc5ccc(Cl)cc5C)nn34)nnc2s1 ?
Response line: inactive

Prompt line: Input C=C1C(O)C2C(=C(CCC3CC3)C13CC3)C(=O)C(C)(C)C2O (stereo not drawn)
Response line: inactive

* * *

Test system: BT-549 breast
Experiment: NCI tumour cell line growth inhibition, 48 h
Entries annotated with measured TGI
Report only the number, with the unit µM understood.

Prompt line: Give the measured TGI of CCc1ccc(C(=O)/C=C/C23c4ccccc4C(c4ccccc42)C2C(=O)NC(=O)C23)cc1 (centres undefined) .
Response line: 3.67

Prompt line: Again, but for CCN(CC)CC(O)CNc1c2ccc(Cl)cc2nc2ccc(OC)cc12 (centres undefined)
Response line: 3.05

Prompt line: Next: COc1cc(/C=C/C(=O)c2ccccc2)cc(OC)c1OC
Response line: 11.2

Prompt line: Next compound up: CCC1OC(=O)CC(O)C(C)C(OC2OC(C)C(O)C(N(C)C)C2O)C(CC=O)CC(C)C(=O)/C=C/C2(C)OC2C1C (centres undefined)
Response line: 99.6

Prompt line: Could you do the same for N#CC(C/C=C/c1ccccc1)NNC(=O)c1c(Cl)c(Cl)c(Cl)c(Cl)c1-c1nc2ccc(C(=O)c3ccccc3)cc2[nH]1 (centres undefined) , please?
Response line: 54.4

* * *

System: IGROV1 ovarian
Test: NCI tumour cell line growth inhibition, 48 h
Decision: TGI >= 20 µM yields MET, all other cases yield NOT MET.

Recorded results for 3 compounds are shown here.
{"columns": ["compound", "subjectOfTest", "discreteLabel"],
 "data": [
  ["CNC(=S)/C(C#N)=C(\\N)N1CCN(C)CC1", "IGROV1 ovarian", "MET"],
  ["C=C(C(=O)OC)N1C(=O)CC(C)C1=O (stereo not given)", "IGROV1 ovarian", "MET"],
  ["c1ccc(CC(Cc2ccccc2)C2=NCCCN2)cc1", "IGROV1 ovarian", "MET"]
]}

Prompt line: Check the entry O=C(Nc1ccc(Cl)cc1)Nc1ccc(Cl)c(C(F)(F)F)c1 : does TGI equal or exceed 20 µM?
Response line: NOT MET

Prompt line: Lookup CCOC(OC1=C(C#N)CCC1)C(C)[Se]c1ccccc1 (stereo not given)
Response line: MET

Prompt line: Subsequent entry: COc1cccc2c1O/C(=C\c1ncc([N+](=O)[O-])n1C)C2=O
Response line: NOT MET

Prompt line: Now this one: C=C1CC2(CCOc3ccc(Cl)cc32)OC1=O (stereo not given)
Response line: MET

Prompt line: Entry to check: Cc1cc(=O)[nH]c(S(=O)(=O)NC(=S)Nc2ccc(Cl)cc2)n1
Response line: MET

Prompt line: Same again, this time with COC(=O)C1=C(C=O)C2C=CC1C2 (stereo not given)
Response line: MET

Prompt line: Again, but for COc1ccc(C(NS(=O)(=O)c2ccc(C)cc2)c2c(C(CBr)OC)c3ccccc3n2S(=O)(=O)c2ccccc2)cc1OC (stereo not given)
Response line: MET

Prompt line: Now consider Cc1cc(N(CCC#N)CCC#N)ccc1/C=N/NC(=O)c1ccccc1 and answer again.
Response line: MET

Prompt line: What do you have for CCC1OC(=O)CC(O)C(C)C(OC2OC(C)C(O)C(N(C)C)C2O)C(CC=O)CC(C)C(=O)/C=C/C2(C)OC2C1C (stereo not given) ?
Response line: MET

Prompt line: Same lookup for COc1cc(C2Oc3cc(-c4oc5cc(O)cc(O)c5c(=O)c4O)ccc3OC2CO)ccc1O (stereo not given) , please.
Response line: MET

Prompt line: Next compound up: CCN=c1nc2sc3c(c2c(NC(=S)NCC)s1)CCN(N1CCc2c(sc4nc(=NCC)sc(NC(=S)NCC)c24)C1)C3
Response line: MET

Prompt line: Next up: CCN(CC)CCN1C(=O)CC2[C@@H]3CCc4cc(OC)ccc4C3CC[C@]2(C)C1=O (stereo not given in full)
Response line: MET

Prompt line: Then this compound: O=c1c(=O)c2cscc2c1=O
Response line: NOT MET

Prompt line: Another compound to look at: C=CCCCCNC(=O)C[C@@H]1C2=C(CC[C@H]1O[Si](C)(C)C(C)(C)C)N1C(=O)CCC/C=C\C1C2 (stereo not given in full)
Response line: MET

Prompt line: Lookup O=c1ccccc(-c2ccc(Br)cc2)c1O
Response line: MET

Prompt line: Next entry: COc1ccc(-c2nc(Sc3c([N+](=O)[O-])ncn3C)n[nH]2)cc1
Response line: MET

Prompt line: # iterate: C[N+](C)(CCNc1ccc(NCC[N+](C)(C)Cc2ccc([N+](=O)[O-])cc2)c2c1C(=O)c1ccccc1C2=O)Cc1ccc([N+](=O)[O-])cc1
Response line: MET
